Entry source: paper PMC9790248

# procedureSummary: Rifampin (strong CYP3A inducer) DDI study, plasma pharmacokinetics
# Type: in vivo, human
# measurementSetup: both sexes, human, plasma, po, 100 mg, ripretinib 100 mg single oral dose alone, fasting, healthy participants (rifampin study, N = 21); read-out: AUC0–∞, geometric mean (CV%)

# smilesData, AUC(0-inf) (ng·h/mL)
records = [
    ("CCn1c(=O)c(-c2cc(NC(=O)Nc3ccccc3)c(F)cc2Br)cc2cnc(NC)cc21", 5820),
]

###

# procedureSummary: Pantoprazole (proton pump inhibitor) DDI study, plasma pharmacokinetics
# Format: in vivo, human
# measurementSetup: both sexes, human, plasma, po, 50 mg, ripretinib 50 mg single oral dose alone, fasting, healthy participants (pantoprazole study, N = 23); read-out: AUC0–∞, geometric mean (CV%)
measuredQuantity: AUC(0-inf) (ng·h/mL)

# smilesData, recordedValue
measured = [
    ("CCn1c(=O)c(-c2cc(NC(=O)Nc3ccccc3)c(F)cc2Br)cc2cnc(NC)cc21", 3690),
]
